These compounds were tested on S. aureus ATCC 29213; MIC is the recorded read-out.

{"Compound": "Cc1c(CN(C)C(=O)/C=C/c2cnc3c(c2)CCC(N2CCCC2)C(=O)N3)oc2ccccc12 (centres unmarked)", "Test system": "S. aureus ATCC 29213", "MIC": "≤ 4 µg/mL"}
{"Compound": "Cc1c(CN(C)C(=O)/C=C/c2cnc3c(c2)CCC(N2CCS(=O)(=O)CC2)C(=O)N3)oc2ccccc12 (centres unmarked)", "Test system": "S. aureus ATCC 29213", "MIC": "≤ 4 µg/mL"}
{"Compound": "CC(=O)NC1CNc2cc(/C=C/C(=O)N(C)Cc3oc4ccccc4c3C)cnc2NC1=O (centres unmarked)", "Test system": "S. aureus ATCC 29213", "MIC": "≤ 4 µg/mL"}
{"Compound": "Cc1c(CN(C)C(=O)/C=C/c2cnc3c(c2)CC[C@H](N)C(=O)N3)oc2c(F)cccc12.Cl (single isomer, unassigned)", "Test system": "S. aureus ATCC 29213", "MIC": "≤ 4 µg/mL"}
{"Compound": "Cc1c(CN(C)C(=O)/C=C/c2cnc3c(c2)CC[C@H](N2CC(O)C2)C(=O)N3)oc2ccccc12 (single isomer, unassigned)", "Test system": "S. aureus ATCC 29213", "MIC": "≤ 4 µg/mL"}
{"Compound": "Cc1oc2ccccc2c1CN(C)C(=O)/C=C/c1cnc2c(c1)CCC(N)C(=O)N2.Cl (centres unmarked)", "Test system": "S. aureus ATCC 29213", "MIC": "≤ 4 µg/mL"}
{"Compound": "Cc1c(CN(C)C(=O)/C=C/c2cnc3c(c2)CCC(N)C(=O)N3)oc2c(Cl)cccc12.O=C(O)C(F)(F)F (centres unmarked)", "Test system": "S. aureus ATCC 29213", "MIC": "≤ 4 µg/mL"}
{"Compound": "Cc1c(CN(C)C(=O)/C=C/c2cnc3c(c2)CC[C@H](N)C(=O)N3)oc2c(Cl)cccc12.Cl (single isomer, unassigned)", "Test system": "S. aureus ATCC 29213", "MIC": "≤ 4 µg/mL"}
{"Compound": "Cc1c(CN(C)C(=O)/C=C/c2cnc3c(c2)NC[C@H](N)C(=O)N3)oc2ccccc12", "Test system": "S. aureus ATCC 29213", "MIC": "≤ 4 µg/mL"}
{"Compound": "Cc1c(CN(C)C(=O)/C=C/c2cnc3c(c2)CC[C@H](N)C(=O)N3)oc2cccc(F)c12.Cl (single isomer, unassigned)", "Test system": "S. aureus ATCC 29213", "MIC": "≤ 4 µg/mL"}
{"Compound": "Cc1c(CN(C)C(=O)/C=C/c2cnc3c(c2)CC[C@H](N)C(=O)N3)sc2c(F)cccc12.Cl (single isomer, unassigned)", "Test system": "S. aureus ATCC 29213", "MIC": "≤ 4 µg/mL"}
{"Compound": "Cc1c(CN(C)C(=O)/C=C/c2cnc3c(c2)N[C@H](C)[C@H](N)C(=O)N3)oc2ccccc12", "Test system": "S. aureus ATCC 29213", "MIC": "≤ 4 µg/mL"}
{"Compound": "Cc1c(CN(C)C(=O)/C=C/c2cnc3c(c2)CC[C@H](N2CC4(COC4)C2)C(=O)N3)oc2ccccc12 (single isomer, unassigned)", "Test system": "S. aureus ATCC 29213", "MIC": "≤ 4 µg/mL"}
{"Compound": "Cc1oc2ccccc2c1CN(C)C(=O)/C=C/c1cnc2c(c1)NC[C@H](N1CC3(COC3)C1)C(=O)N2 (single isomer, unassigned)", "Test system": "S. aureus ATCC 29213", "MIC": "≤ 4 µg/mL"}
{"Compound": "Cc1c(CN(C)C(=O)/C=C/c2cnc3c(c2)CCC(N2CC4(CCOCC4)C2)C(=O)N3)oc2ccccc12 (centres unmarked)", "Test system": "S. aureus ATCC 29213", "MIC": "≤ 4 µg/mL"}
{"Compound": "Cc1oc2c(N)cccc2c1CN(C)C(=O)/C=C/c1cnc2c(c1)CCC(N1CCCC1)C(=O)N2 (centres unmarked)", "Test system": "S. aureus ATCC 29213", "MIC": "≤ 4 µg/mL"}
{"Compound": "Cc1oc2c(N)cccc2c1CN(C)C(=O)/C=C/c1cnc2c(c1)N[C@H](C)[C@H](N)C(=O)N2", "Test system": "S. aureus ATCC 29213", "MIC": "≤ 4 µg/mL"}
{"Compound": "Cc1c(CN(C)C(=O)/C=C/c2cnc3c(c2)CC[C@H](N)C(=O)N3)oc2ccc(Oc3cccnc3)cc12.Cl (single isomer, unassigned)", "Test system": "S. aureus ATCC 29213", "MIC": "≤ 4 µg/mL"}
{"Compound": "Cc1c(CN(C)C(=O)/C=C/c2cnc3c(c2)CC[C@H](N)C(=O)N3)oc2ccccc12.Cl (single isomer, unassigned)", "Test system": "S. aureus ATCC 29213", "MIC": "≤ 4 µg/mL"}
{"Compound": "Cc1oc2ccccc2c1CN(C)C(=O)/C=C/c1cnc2c(c1)CC[C@H](N)C(=O)N2", "Test system": "S. aureus ATCC 29213", "MIC": "≤ 4 µg/mL"}
{"Compound": "Cc1c(CN(C)C(=O)/C=C/c2cnc3c(c2)NC[C@@H](N2C[C@@H](C)O[C@@H](C)C2)C(=O)N3)oc2ccccc12 (single isomer, unassigned)", "Test system": "S. aureus ATCC 29213", "MIC": "≤ 4 µg/mL"}
{"Compound": "Cc1c(CN(C)C(=O)/C=C/c2cnc3c(c2)CC[C@H](N)C(=O)N3)oc2cccc(CNc3cccnc3)c12.Cl.Cl (single isomer, unassigned)", "Test system": "S. aureus ATCC 29213", "MIC": "≤ 4 µg/mL"}
{"Compound": "Cc1c(CN(C)C(=O)/C=C/c2cnc3c(c2)CCC(N(C)C)C(=O)N3)oc2ccccc12 (centres unmarked)", "Test system": "S. aureus ATCC 29213", "MIC": "≤ 4 µg/mL"}
{"Compound": "Cc1c(CN(C)C(=O)/C=C/c2cnc3c(c2)CC[C@H](N(C)C)C(=O)N3)oc2ccccc12 (single isomer, unassigned)", "Test system": "S. aureus ATCC 29213", "MIC": "≤ 4 µg/mL"}
{"Compound": "Cc1c(CN(C)C(=O)/C=C/c2cnc3c(c2)CC[C@H](N)C(=O)N3)sc2ccccc12.Cl (single isomer, unassigned)", "Test system": "S. aureus ATCC 29213", "MIC": "≤ 4 µg/mL"}
{"Compound": "Cc1c(CN(C)C(=O)/C=C/c2cnc3c(c2)CC[C@H](N2CCOCC2)C(=O)N3)oc2c(F)cccc12 (single isomer, unassigned)", "Test system": "S. aureus ATCC 29213", "MIC": "≤ 4 µg/mL"}
